PROCEDURE_DETAILS: Half life in aqueous buffer at 1 mg/ml at pH 7.4 measured for 6 hr
Type: ADME
READOUT_TYPE: half-life at 1 mg/ml (h)

- STRUCTURE_STRING: "COc1ccc2c(c1)c(CC(=O)OCCN1CCCC1)c(C)n2C(=O)c1ccc(Cl)cc1"
  READOUT_TYPE: "half-life at 1 mg/ml"
  DISPLAY_UNIT: "h"
  REPORTED: 99
- STRUCTURE_STRING: "COc1ccc2c(c1)c(CC(=O)OCCN1CCCCC1)c(C)n2C(=O)c1ccc(Cl)cc1"
  READOUT_TYPE: "half-life at 1 mg/ml"
  DISPLAY_UNIT: "h"
  REPORTED: 66
- STRUCTURE_STRING: "COc1ccc2c(c1)c(CC(=O)OCCN(C)C)c(C)n2C(=O)c1ccc(Cl)cc1"
  READOUT_TYPE: "half-life at 1 mg/ml"
  DISPLAY_UNIT: "h"
  REPORTED: 34
- STRUCTURE_STRING: "COc1ccc2c(c1)c(CC(=O)OCCN1CCOCC1)c(C)n2C(=O)c1ccc(Cl)cc1"
  READOUT_TYPE: "half-life at 1 mg/ml"
  DISPLAY_UNIT: "h"
  REPORTED: 52
- STRUCTURE_STRING: "CCN(CC)CCOC(=O)Cc1c(C)n(C(=O)c2ccc(Cl)cc2)c2ccc(OC)cc12"
  READOUT_TYPE: "half-life at 1 mg/ml"
  DISPLAY_UNIT: "h"
  REPORTED: 39

###

Test system: Rattus norvegicus
PROCEDURE_DETAILS: Anticholinergic activity in po dosed overnight fasted Rattus norvegicus (rat) ileum
Format: functional
TEST_PARAMETERS: read-out: pA2 (converted)
Counter-ions that a name gives are not always drawn.
READOUT_TYPE: log10 Kb (log10 of the value in µM)

- COMPOUND: "COc1ccc2c(c1)c(CC(=O)OCCN1CCCC1)c(C)n2C(=O)c1ccc(Cl)cc1"
  log10 Kb: 1.08
- COMPOUND: "COc1ccc2c(c1)c(CC(=O)OCCN(C)C)c(C)n2C(=O)c1ccc(Cl)cc1"
  log10 Kb: 0.81
- COMPOUND: "CCN(CC)CCOC(=O)Cc1c(C)n(C(=O)c2ccc(Cl)cc2)c2ccc(OC)cc12"
  log10 Kb: 1.51
- COMPOUND: "CN1C2CCC1CC(OC(=O)C(CO)c1ccccc1)C2 (stereo not drawn) [ENDO-ATROPINE SULFATE]"
  log10 Kb: -2.20
- COMPOUND: "COc1ccc2c(c1)c(CC(=O)OCCN1CCCCC1)c(C)n2C(=O)c1ccc(Cl)cc1"
  log10 Kb: 0.96
- COMPOUND: "COc1ccc2c(c1)c(CC(=O)OCCN1CCOCC1)c(C)n2C(=O)c1ccc(Cl)cc1"
  log10 Kb: 0.84

###

Tested on: Rattus norvegicus
PROCEDURE_DETAILS: Ulcerogenic activity in 36 hr fasting Rattus norvegicus Sprague-Dawley (rat) stomach assessed as ulcer index at 25 mg/kg, po measured after 4 hr
Type: toxicity, organism-based
Set-up: dose 25 mg/kg, route oral
TEST_PARAMETERS: in vivo

- STRUCTURE_STRING: "COc1ccc2c(c1)c(CC(=O)OCCN(C)C)c(C)n2C(=O)c1ccc(Cl)cc1"
  TGT: "Rattus norvegicus"
  UI: 0.149
- STRUCTURE_STRING: "CCN(CC)CCOC(=O)Cc1c(C)n(C(=O)c2ccc(Cl)cc2)c2ccc(OC)cc12"
  TGT: "Rattus norvegicus"
  UI: 0.317
- STRUCTURE_STRING: "COc1ccc2c(c1)c(CC(=O)O)c(C)n2C(=O)c1ccc(Cl)cc1"
  TGT: "Rattus norvegicus"
  UI: 0.547
- STRUCTURE_STRING: "COc1ccc2c(c1)c(CC(=O)OCCN1CCOCC1)c(C)n2C(=O)c1ccc(Cl)cc1"
  TGT: "Rattus norvegicus"
  UI: 0.259
- STRUCTURE_STRING: "COc1ccc2c(c1)c(CC(=O)OCCN1CCCC1)c(C)n2C(=O)c1ccc(Cl)cc1"
  TGT: "Rattus norvegicus"
  UI: 0.341
- STRUCTURE_STRING: "COc1ccc2c(c1)c(CC(=O)OCCN1CCCCC1)c(C)n2C(=O)c1ccc(Cl)cc1"
  TGT: "Rattus norvegicus"
  UI: 0.134
